# Test system: Propionibacterium acnes ATCC 6919
# TEST DETAILS: MIC, agar dilution method NCCLS M11-A6, Brucella agar, anaerobic (Table 9, superscript c)
# Format: cell-based
# CONDITION INFO: ATCC 6919
Non-standard residues stand in square brackets, D forms with d. Residues, ends and D or L forms follow the SMILES beside them. *: point of attachment. Lauroyl = CCCCCCCCCCCC(=O)*; Decanoyl = CCCCCCCCCC(=O)*
PROPERTY: MIC P. acnes (c ug/mL)
The figure you give is taken to be in c ug/mL; do not add the unit.

[[record]]
compound = "CCCCCCCCCC(=O)N[C@H](CCCNC(=N)N)C(=O)N[C@H](CO)C(=O)N[C@H](CCCNC(=N)N)C(=O)N[C@H](Cc1c[nH]c2ccccc12)C(=O)N[C@H](CCCNC(=N)N)C(=O)N[C@H](CC(=O)O)C(=O)N[C@@H](C(=O)N[C@H](C)C(=O)N[C@H](CCCNC(=N)N)C(=O)N[C@H](CC(N)=O)C(=O)N[C@H](Cc1ccccc1)C(=O)N[C@H](CCSC)C(=O)N[C@H](CCCNC(=N)N)C(N)=O)C(C)C [Peptide 208, Decanyl-rsrwrdvarnfmr-NH2] (Decanoyl-[dR][dS][dR][dW][dR][dD][dV][dA][dR][dN][dF][dM][dR]-NH2)"
target_system = "Propionibacterium acnes ATCC 6919"
property = "MIC P. acnes"
value_measured = 2


Attention now shifts to the item below.
Req: What value of MIC P. acnes has been recorded for this entry: CCCCCCCCCCCC(=O)N[C@H](CCCNC(=N)N)C(=O)N[C@H](CO)C(=O)N[C@H](CCCNC(=N)N)C(=O)N[C@H](Cc1c[nH]c2ccccc12)C(=O)N[C@H](CCCNC(=N)N)C(=O)N[C@H](CC(=O)O)C(=O)N[C@@H](C(=O)N[C@H](C)C(=O)N[C@H](CCCNC(=N)N)C(N)=O)C(C)C [Peptide 118, Lauryl-rsrwrdvar-NH2] (Lauroyl-[dR][dS][dR][dW][dR][dD][dV][dA][dR]-NH2)
Resp: 16

====

The entries below are paired with their reported MIC P. aeruginosa.
# Tested on: Pseudomonas aeruginosa ATCC 27853
# TEST DETAILS: MIC, NCCLS M7-A6 broth microdilution (Table 9, no superscript)
# Type: cell-based
# CONDITION INFO: ATCC 27853
Non-standard residues stand in square brackets, D forms with d. Residues, ends and D or L forms follow the SMILES beside them. *: point of attachment. Lauroyl = CCCCCCCCCCCC(=O)*; Octanoyl = CCCCCCCC(=O)*
Number in µg/mL, nothing else.

[[record]]
molecule = "CCCCCCCC(=O)N[C@H](CCCNC(=N)N)C(=O)N[C@H](CO)C(=O)N[C@H](CCCNC(=N)N)C(=O)N[C@H](Cc1c[nH]c2ccccc12)C(=O)N[C@H](CCCNC(=N)N)C(=O)N[C@H](CC(=O)O)C(=O)N[C@@H](C(=O)N[C@H](C)C(=O)N[C@H](CCCNC(=N)N)C(=O)N[C@H](CC(N)=O)C(=O)N[C@H](Cc1ccccc1)C(=O)N[C@H](CC(C)C)C(=O)N[C@H](CCCNC(=N)N)C(N)=O)C(C)C [Peptide 189, Octyl-rsrwrdvarnflr-NH2] (Octanoyl-[dR][dS][dR][dW][dR][dD][dV][dA][dR][dN][dF][dL][dR]-NH2)"
target_system = "Pseudomonas aeruginosa ATCC 27853"
value_measured = 32


Consider now this further molecule.
Req: May I ask what MIC P. aeruginosa has been recorded for CCCCCCCCCCCC(=O)N[C@H](CCCNC(=N)N)C(=O)N[C@H](Cc1c[nH]c2ccccc12)C(=O)N[C@H](CCCNC(=N)N)C(=O)N[C@H](CC(=O)O)C(=O)N[C@@H](C(=O)N[C@H](C)C(=O)N[C@H](CCCNC(=N)N)C(=O)N[C@H](CC(N)=O)C(=O)N[C@H](Cc1ccccc1)C(=O)N[C@H](CCSC)C(=O)N[C@H](CCCNC(=N)N)C(N)=O)C(C)C [Peptide 130, Lauryl-rwrdvarnfmr-NH2] (Lauroyl-[dR][dW][dR][dD][dV][dA][dR][dN][dF][dM][dR]-NH2) ?
Resp: 8

Reference source: patent US20050282755A1
